Tested on: Clostridium bolteae;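 also: lowest concentration where monotonic median growth AUC falls below 0.75 of drug-free control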
Assay: IC25 growth inhibition; higher = less potent
Measured IC25 growth inhibition, listed per entry.

Compound	Result
O=C1CCc2ccc(OCCCCN3CCN(c4cccc(Cl)c4Cl)CC3)cc2N1	> 160 µM
CN[C@H](CC(C)C)C(=O)N[C@H]1C(=O)N[C@@H](CC(N)=O)C(=O)N[C@H]2C(=O)N[C@H]3C(=O)N[C@H](C(=O)N[C@H](C(=O)O)c4cc(O)cc(O)c4-c4cc3ccc4O)[C@H](O)c3ccc(c(Cl)c3)Oc3cc2cc(c3O[C@@H]2O[C@H](CO)[C@@H](O)[C@H](O)[C@H]2O[C@H]2C[C@](C)(N)[C@H](O)[C@H](C)O2)Oc2ccc(cc2Cl)[C@H]1O	< 1.25 µM
CCc1oc2ccccc2c1C(=O)c1cc(Br)c(O)c(Br)c1	≤ 40 µM

**Q:** Suppose we examine the compound COc1ccc2[nH]c([S+]([O-])Cc3ncc(C)c(OC)c3C)nc2c1 (centres undefined) ; what IC25 growth inhibition value has been reported?
**A:** > 160 µM

**Q:** Any idea what IC25 growth inhibition was measured for CC(C)(C)c1ccc(C(O)CCCN2CCC(C(O)(c3ccccc3)c3ccccc3)CC2)cc1 (centres undefined) ?
**A:** ≤ 80 µM
